System: VDR:RXRa (NR concentration 270 nM, RXRa partner concentration 90 nM)
Experiment: PBM binding z-score (relative to random genomic background probes); higher = stronger binding; sequences stand for … in GC…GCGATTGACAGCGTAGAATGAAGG
Binning scheme for PBM binding z-score: lower range (below 0.9), middle range (0.9 to below 4), upper range (4 or more)

AGACCGAGGGCAATGAGTTGATAGCACGGGTGGC upper range
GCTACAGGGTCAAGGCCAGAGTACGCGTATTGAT upper range
TCTAGCAGGCCAGAGGGTCACACAAGAGGTACGG middle range
TATACAGGGTCAAAGGCCTGAGTACGAATGTCGA upper range
GCTATTAGTTGAAAGGGAAACCGAATGATTCTCG lower range

Exercise: read the entry `AGTATTAGTTGAGACGAGGGCAACCGATAGGTTG` and state which class it falls under. lower range

Exercise: read the entry `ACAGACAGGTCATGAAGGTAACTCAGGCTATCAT` and state which class it falls under. upper range

----------
Tested on: RXRa DBDmut IVT, anti-RXR (DBD mutation: RXRa K156A/R161A, NR concentration 90 nM)
Assay: PBM binding z-score (relative to random genomic background probes); higher = stronger binding; sequences stand for … in GC…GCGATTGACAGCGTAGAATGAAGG
Consider the following sequences and their measured PBM binding z-score readings.
A bare number is all that is needed in reply.

For `CCTACTGGGCCATTCAGAGGTCCTTGATCATATG` , write its PBM binding z-score. -0.26

For `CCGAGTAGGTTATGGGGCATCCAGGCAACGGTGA` , write its PBM binding z-score. -0.816

For `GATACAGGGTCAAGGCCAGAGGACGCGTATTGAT` , write its PBM binding z-score. 2.07

For `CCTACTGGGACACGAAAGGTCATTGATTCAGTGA` , write its PBM binding z-score. 0.718

For `CTACCAAGGTGCACAAGGTCGTTGATTACTATTC` , write its PBM binding z-score. 1.8

For `TTACCAAGGTGAAAGGTCGTTGATGCACGCCTTG` , write its PBM binding z-score. 0.684

----------
Test system: PPARa:RXRa (NR concentration 270 nM, RXRa partner concentration 90 nM)
Assay: PBM binding z-score (relative to random genomic background probes); higher = stronger binding; sequences stand for … in GC…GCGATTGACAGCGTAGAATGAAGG
READOUT_KIND: PBM binding z-score
A bare number is all that is needed in reply.

Use these answered entries as a reference point.
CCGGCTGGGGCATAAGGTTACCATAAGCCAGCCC 1.11
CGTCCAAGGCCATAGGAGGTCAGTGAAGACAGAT 2.21
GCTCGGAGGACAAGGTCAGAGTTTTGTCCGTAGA 2.42
TAGGCTAGGTCATTGGGCCAGTATAGTACGCATC 3.73

For `CACCCTAGGTCAGGGCCAGTATAGGAGGAACGTT` , write its PBM binding z-score. 2.24

For `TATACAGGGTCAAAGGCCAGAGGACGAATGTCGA` , write its PBM binding z-score. 5.98

For `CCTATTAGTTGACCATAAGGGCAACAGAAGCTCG` , write its PBM binding z-score. 0.814

For `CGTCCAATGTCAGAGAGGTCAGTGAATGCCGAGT` , write its PBM binding z-score. 2.69

----------
System: PPARg:RXRa (NR concentration 180 nM, RXRa partner concentration 90 nM)
Assay: PBM binding z-score (relative to random genomic background probes); higher = stronger binding; sequences stand for … in GC…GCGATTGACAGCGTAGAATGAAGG
READOUT_KIND: PBM binding z-score

Use these answered entries as a reference point.
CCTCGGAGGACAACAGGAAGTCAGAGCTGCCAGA 0.123
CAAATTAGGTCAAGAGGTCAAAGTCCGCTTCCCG 9.93
CCTACTGGGCCAAAATGGTCATTGATGCCGATAA 0.666
CCTAGCAGGCCAATCTGGGTCAATCAAGGCTTGA 1.49
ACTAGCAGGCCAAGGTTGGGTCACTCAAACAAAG 0.643
TAGACTAGGTCAGATCGGGCCAGTATACGCTATA 3.05

For `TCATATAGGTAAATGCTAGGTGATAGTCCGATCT` , write its PBM binding z-score. 1.13

For `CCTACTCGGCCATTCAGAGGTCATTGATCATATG` , write its PBM binding z-score. 1.05

For `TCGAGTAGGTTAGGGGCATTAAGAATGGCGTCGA` , write its PBM binding z-score. 1.07

----------
Consider the following sequences and their measured PBM binding z-score readings.
System: RXRa DBDmut IVT, anti-RXR (DBD mutation: RXRa K156A/R161A, NR concentration 90 nM)
Assay: PBM binding z-score (relative to random genomic background probes); higher = stronger binding; sequences stand for … in GC…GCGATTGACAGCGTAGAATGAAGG
A bare number is all that is needed in reply.

AGAACAAGGGCAATGAGTTGATAGCACGGGTGGC 1.14

For `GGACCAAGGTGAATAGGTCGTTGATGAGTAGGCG` , write its PBM binding z-score. -0.31

For `CCTATTAGTTGACCATAAGGGCAAACGAAGCTCG` , write its PBM binding z-score. 0.782

For `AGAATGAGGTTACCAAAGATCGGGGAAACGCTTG` , write its PBM binding z-score. 1.5

For `TAGCCTAGGTCGTTGGGCCAGTATAGTACGCATC` , write its PBM binding z-score. 0.311

For `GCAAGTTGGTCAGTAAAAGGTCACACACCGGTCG` , write its PBM binding z-score. 0.685

----------
Test system: PPARg:RXRa 270nM:90nM, anti-RXR (NR concentration 270 nM, RXRa partner concentration 90 nM)
Assay: PBM binding z-score (relative to random genomic background probes); higher = stronger binding; sequences stand for … in GC…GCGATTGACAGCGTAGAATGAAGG
Consider the following sequences and their measured PBM binding z-score readings.
A bare number is all that is needed in reply.

Use these answered entries as a reference point.
TCTTGTAGATCAAAGGTTAAGTAAGCCGAAGCCT 8.32
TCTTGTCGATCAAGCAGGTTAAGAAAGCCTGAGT 1.21
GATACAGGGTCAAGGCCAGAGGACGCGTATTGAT 5.55
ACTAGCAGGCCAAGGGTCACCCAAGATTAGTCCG 7.88
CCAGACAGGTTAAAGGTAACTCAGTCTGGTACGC 4.78

For `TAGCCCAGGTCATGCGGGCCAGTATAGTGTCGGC` , write its PBM binding z-score. 2.55

For `CTACCAAGGTGAACAAGGTCGTGGATTACTATTC` , write its PBM binding z-score. 1.61

For `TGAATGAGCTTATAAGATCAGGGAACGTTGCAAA` , write its PBM binding z-score. -0.382

----------
Tested on: RXRa DBDmut IVT, anti-RXR (DBD mutation: RXRa K156A/R161A, NR concentration 90 nM)
Assay: PBM binding z-score (relative to random genomic background probes); higher = stronger binding; sequences stand for … in GC…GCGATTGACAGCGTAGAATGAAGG
READOUT_KIND: PBM binding z-score
A bare number is all that is needed in reply.

Use these answered entries as a reference point.
CAAACAGGGTCAGCTAGGCCAGAGTAGGGACGGC 1.83
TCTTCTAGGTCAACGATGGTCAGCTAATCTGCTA 1.9
CCTAGCAGGCCAATCTGAGTCACTCAAGGCTTGA 0.122
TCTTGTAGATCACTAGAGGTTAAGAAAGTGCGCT 0.477
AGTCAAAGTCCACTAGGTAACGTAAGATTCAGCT 0.801
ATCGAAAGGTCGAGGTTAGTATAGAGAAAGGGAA 1.18
CCTACTGGGCCACGAAAGGTCATTGAATCAGTGA 0.485
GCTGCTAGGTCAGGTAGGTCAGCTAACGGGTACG 0.899
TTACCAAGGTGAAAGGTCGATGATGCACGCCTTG -0.254
ATCTCTAGATAACAAGTTCAGTGAAAGAGAGGAC 0.583

Turning to the following sequence.
For `TAGCCTAGGTAATTGGGCCAGTATAGTACGCATC` , write its PBM binding z-score. -1.07

----------
Tested on: RXRa homodimer (NR concentration 180 nM)
Test: PBM binding z-score (relative to random genomic background probes); higher = stronger binding; sequences stand for … in GC…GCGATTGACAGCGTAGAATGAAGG
Quick rule for you: PBM binding z-score at 1 or higher means Criterion met, lower means Criterion not met.

ATATGTAGGTTAGGTGGGGTCATTCAGACTAGGC Criterion met
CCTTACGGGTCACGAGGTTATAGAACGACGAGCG Criterion met
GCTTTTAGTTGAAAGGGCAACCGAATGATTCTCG Criterion met

Kindly determine if PBM binding z-score recorded for `CCTAGCATGCCAATCTGGGTCACTCAAGGCTTGA` is above or exactly 1. Criterion not met

Kindly determine if PBM binding z-score recorded for `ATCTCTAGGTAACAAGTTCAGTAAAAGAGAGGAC` is above or exactly 1. Criterion met

Kindly determine if PBM binding z-score recorded for `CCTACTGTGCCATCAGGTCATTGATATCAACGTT` is above or exactly 1. Criterion met
